These data points were gathered from patent US20110230478A1.

methodDescription: logP by HPLC on reversed-phase columns (C 18), EEC Directive 79/831 Annex V.A8
Format: physicochemical
experimentalContext: method marker [c]
Provide the reported logP of each item.

For the molecule C=CCNc1nc(Nc2ccccc2)ncc1Cl [Example 286] , what logP is on record?
3.1[c];

What value of measured logP is listed for CC(C)Nc1nc(Nc2cccc(CS(=O)(=O)NCc3ccccc3)c2)ncc1Cl [Example 251] ?
3.35[c];

GET /values?readout=logP&item= COC(C)C(C)Nc1nc(Nc2ccccc2)ncc1Cl (stereo not shown) [Example 295]
3.64[c];

Which measured logP value corresponds to CC(C)Nc1nc(Nc2ccccc2)ncc1Br [Example 247] ?
3.7[c];

I'd like to know its logP. The molecule in question is CCCNc1nc(Nc2cccc(SC)c2)ncc1Cl [Example 284]
3.87[c];

I'd like to know its logP. The molecule in question is CC(C)Nc1nc(Nc2cccc(CS(=O)(=O)NC(C)c3ccccc3)c2)ncc1Cl (stereo not shown) [Example 248]
3.57[c];

# lookup: logP of OCCNc1nc(Nc2ccccc2)ncc1Cl [Example 285]
1.83[c];

Can you look up the measured logP of C=CCN(C)c1nc(Nc2ccccc2)ncc1Cl [Example 271] for me?
4.03[c];

Query (molecule): CC(C)Nc1nc(Nc2cccc(CC#N)c2)ncc1Br [Example 246] ; field requested: logP
3.13[c];

I am curious: what logP value has been reported for CCCN(C)c1nc(Nc2ccccc2)ncc1Cl [Example 272] ?
4.35[c];

Form field: reported logP of CC(C)Nc1nc(Nc2cccc(CS(=O)(=O)N(C)C)c2)ncc1Cl [Example 250]
2.85[c];

May I ask what logP has been recorded for CC(C)Nc1nc(Nc2cccc(C=O)c2)ncc1Cl [Example 252] ?
3.06[c];

Could you tell me which logP is on file for CCC(=O)N(C)c1cccc(Nc2ncc(Cl)c(NC(C)C)n2)c1 [Example 290] ?
2.89[c];
